Assay: Half lives of various silanes in 0.1M aqueous phosphate buffers at pH 7 and 25°
Type: physicochemical
Settings: 0.1M aqueous phosphate buffer, pH 7, 25°
Assay Metric: half-life (h)
Unit h implied. Number only.

1) CO[Si](CCCl)(OC)OC    0.333

Given CC(C)O[Si](CCCl)(OC(C)C)OC(C)C , state its recorded half-life. 504

Need half-life, item CC[S+](C)CC[Si](OC)(OC)OC.[I-] (stereo not shown) 14
